# Experimental Target: Orexin/Hypocretin receptor type 1 (Homo sapiens) (UniProt O43613)
# Sequence (O43613 whole entry, looked up): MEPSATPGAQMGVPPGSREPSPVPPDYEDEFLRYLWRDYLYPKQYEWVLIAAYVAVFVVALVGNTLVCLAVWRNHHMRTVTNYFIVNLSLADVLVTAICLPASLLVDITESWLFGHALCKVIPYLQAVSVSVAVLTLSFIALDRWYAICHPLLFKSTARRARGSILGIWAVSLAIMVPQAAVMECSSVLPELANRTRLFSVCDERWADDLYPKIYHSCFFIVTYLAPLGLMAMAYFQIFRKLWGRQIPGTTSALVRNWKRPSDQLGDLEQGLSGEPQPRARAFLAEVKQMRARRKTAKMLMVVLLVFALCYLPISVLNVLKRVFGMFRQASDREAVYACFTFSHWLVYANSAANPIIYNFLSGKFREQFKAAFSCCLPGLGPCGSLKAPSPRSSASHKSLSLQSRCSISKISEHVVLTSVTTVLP
# Assay Comment: blockers of orexin-A calcium signaling via HCRTR1 – fluorescence, CHO/OX1R cells, Fluo-8 calcium, primary screen (AID 434989)
# Details: Fluo-8 calcium fluorescence, at 5 µM
Hit rate of the full screen: of about 330,000 compounds, about 1,400 (0.42%) were called active.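 How the source made its calls: active means inhibition above its plate's threshold, mean inhibition of all tested compounds on the plate plus 3 SD (cut at about 37% in these data); inactive means the rest.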 The sample holds actives, similar compounds and a random draw of the others, so the mix is not that of the screen.
Parameter call: string, one of active, inactive

Example entries begin here.
Compound	Answer Label
CCCCCCCCCCOC(=O)Cn1c(COc2ccc(C)cc2)[n+](C)c2ccccc21	active
Cc1ccc(S(=O)(=O)NCC(=O)NNC(=O)c2ccc(Br)cc2)cc1C	inactive
CCOC(=O)Cn1c(-c2cccnc2Cl)nc2ccccc21	inactive
CCN(CC(=O)Nc1ccccc1OC)C(=O)Cn1cnc2ccccc2c1=O	inactive
O=C(NCCc1ccco1)c1ccc(OCc2cn3ccccc3n2)cc1	inactive

Query compound follows.
Query: In this assay, the call recorded for S=C(NCC1COc2ccccc2O1)Nc1ccc(Br)cc1 (stereo not given) was what?
Reply: inactive

The reported measurements were obtained from PubChem BioAssay AID434989.
